MIC tested on Aspergillus versicolor (ATCC 11730): recorded values
Express your answer in µg/mL, writing the number without its unit.

# example entries with known answers
Given the entry `COC(=O)c1[nH]c2ccc(F)cc2c1/C=C1\SC(=S)N(N2CCOCC2)C1=O` , report its measured MIC.
15

What would you report for `COC(=O)c1[nH]c2ccccc2c1/C=C1\SC(=S)N(CCC(=O)O)C1=O` ?
15

What would you report for `COC(=O)c1[nH]c2ccc(F)cc2c1/C=C1\SC(=S)N(CCCC(=O)O)C1=O` ?
15

More entries:
Given the entry CC(=O)N1CCN(c2ccc(OCC3COC(Cn4ccnc4)(c4ccc(Cl)cc4Cl)O3)cc2)CC1 (stereo not shown) [Ketoconazole, reference compound] , report its measured MIC.
200

What would you report for `COC(=O)c1[nH]c2ccccc2c1/C=C1\SC(=S)N(c2cccc(O)c2)C1=O` ?
8

What would you report for `COC(=O)c1[nH]c2ccccc2c1/C=C1\SC(=S)N(c2ccc(O)cc2)C1=O` ?
8

What would you report for `COC(=O)c1[nH]c2ccccc2c1/C=C1\SC(=S)N(c2ccc(C(=O)O)cc2)C1=O` ?
15

----------
We begin with a simple list: items and their reported melting point.

# example entries with known answers
Given the entry `COC(=O)c1[nH]c2ccccc2c1/C=C1\SC(=S)N(c2cccc(O)c2)C1=O` , report its measured melting point.
245 to 247 °C

What would you report for `COC(=O)c1[nH]c2ccc(F)cc2c1/C=C1\SC(=S)N(c2ccc(O)cc2)C1=O` ?
267 to 268 °C

What would you report for `COC(=O)c1[nH]c2ccccc2c1/C=C1\SC(=S)N(CCCN2CCOCC2)C1=O` ?
213 to 214 °C

More entries:
Given the entry `COC(=O)c1[nH]c2ccccc2c1/C=C1\SC(=S)N(CC(=O)O)C1=O` , report its measured melting point.
292 to 294 °C

What would you report for COC(=O)c1[nH]c2ccccc2c1/C=C1\SC(=S)N(C(C(=O)O)C(C)C)C1=O (stereo not shown) ?
256 to 258 °C

What would you report for `COC(=O)c1[nH]c2ccc(F)cc2c1/C=C1\SC(=S)N(CCCC(=O)O)C1=O` ?
192 to 193 °C

What would you report for `COC(=O)c1[nH]c2ccccc2c1/C=C1\SC(=S)N(N2CCOCC2)C1=O` ?
278 to 280 °C

----------
Tested on: Staphylococcus aureus (ATCC 6538)
EXPERIMENTAL_DETAILS: Antibacterial microdilution (MIC/MBC)
Assay type: cell-based
CONDITION_DESCRIPTION: Staphylococcus aureus, ATCC6538; S.a. (S. aureus); read-out: MIC
We begin with a simple list: items and their reported MIC.
Express your answer in µg/mL, writing the number without its unit.

Given the entry COC(=O)c1[nH]c2ccccc2c1/C=C1\SC(=S)N(N2CCOCC2)C1=O [Compound 6] , report its measured MIC.
15

What would you report for COC(=O)c1[nH]c2ccccc2c1/C=C1\SC(=S)N(CCCN2CCOCC2)C1=O [Compound 5] ?
15

----------
Test system: Enterobacter cloacae (clinical isolate)
EXPERIMENTAL_DETAILS: Antibacterial microdilution (MIC/MBC)
Format: cell-based
CONDITION_DESCRIPTION: Enterobacter cloacae; En.cl (En. cloacae)
We begin with a simple list: items and their reported MBC.
Express your answer in µg/mL, writing the number without its unit.

# example entries with known answers
Given the entry COC(=O)c1[nH]c2ccccc2c1/C=C1\SC(=S)N(CC(=O)O)C1=O [Compound 11] , report its measured MBC.
30

What would you report for [H]/N=C(/N)N[C@H]1[C@H](O)[C@@H](O)[C@H](O[C@@H]2O[C@@H](C)[C@](O)(C=O)[C@H]2O[C@@H]2O[C@@H](CO)[C@H](O)[C@@H](O)[C@@H]2NC)[C@@H](N/C(N)=N\[H])[C@@H]1O [Streptomycin, reference compound] ?
300

What would you report for COC(=O)c1[nH]c2ccccc2c1/C=C1\SC(=S)N(c2ccc(C(=O)O)cc2)C1=O [Compound 2] ?
30

What would you report for COC(=O)c1[nH]c2ccccc2c1/C=C1\SC(=S)N(CCC(=O)O)C1=O [Compound 17] ?
15

What would you report for COC(=O)c1[nH]c2ccc(F)cc2c1/C=C1\SC(=S)N(N2CCOCC2)C1=O [Compound 16] ?
60

What would you report for COC(=O)c1[nH]c2ccc(F)cc2c1/C=C1\SC(=S)N(C)C1=O [Compound 15] ?
60

More entries:
Given the entry CC1(C)S[C@@H]2[C@H](NC(=O)[C@H](N)c3ccccc3)C(=O)N2[C@H]1C(=O)O [Ampicillin, reference compound] , report its measured MBC.
500

What would you report for COC(=O)c1[nH]c2ccc(F)cc2c1/C=C1\SC(=S)N(CCCC(=O)O)C1=O [Compound 9] ?
60

What would you report for COC(=O)c1[nH]c2ccccc2c1/C=C1\SC(=S)N(CCCCCC(=O)O)C1=O [Compound 1] ?
30

What would you report for COC(=O)c1[nH]c2ccccc2c1/C=C1\SC(=S)N(C(C(=O)O)C(C)C)C1=O (stereo not drawn) [Compound 12] ?
60

What would you report for COC(=O)c1[nH]c2ccccc2c1/C=C1\SC(=S)N(CCCN2CCOCC2)C1=O [Compound 5] ?
30

----------
System: A. ochraceus
EXPERIMENTAL_DETAILS: Antifungal bioassay (MIC/MFC)
Type: cell-based
CONDITION_DESCRIPTION: Aspergillus ochraceus; A.o. (A. ochraceus); read-out: MIC
Protocol: For the antifungal bioassays, six fungi were used: […] The organisms were obtained from the Mycological Laboratory, Department of Plant Physiology, Institute for Biological Research “Siniša Stankovic”, Belgrade, Serbia. All experiments were performed in duplicate.
We begin with a simple list: items and their reported MIC.
Express your answer in µg/mL, writing the number without its unit.

Given the entry COC(=O)c1[nH]c2cc(OC)ccc2c1/C=C1\SC(=S)N(c2cccc(F)c2)C1=O [Compound 13] , report its measured MIC.
8

What would you report for COC(=O)c1[nH]c2ccccc2c1/C=C1\SC(=S)N(C(C(=O)O)C(C)C)C1=O (stereo not drawn) [Compound 12] ?
8

What would you report for COC(=O)c1[nH]c2ccc(F)cc2c1/C=C1\SC(=S)N(N2CCOCC2)C1=O [Compound 16] ?
15

More entries:
Given the entry COC(=O)c1[nH]c2ccccc2c1/C=C1\SC(=S)N(N2CCOCC2)C1=O [Compound 6] , report its measured MIC.
8

What would you report for c1ccc(-c2ccc(C(c3ccccc3)n3ccnc3)cc2)cc1 (stereo not drawn) [Bifonazole, reference compound] ?
150

What would you report for COC(=O)c1[nH]c2ccccc2c1/C=C1\SC(=S)N(CCCN2CCOCC2)C1=O [Compound 5] ?
8

----------
We begin with a simple list: items and their reported MBC.
Tested on: M. flavus
EXPERIMENTAL_DETAILS: Antibacterial microdilution (MIC/MBC)
Type: cell-based
CONDITION_DESCRIPTION: Micrococcus flavus; M.f. (M. flavus)
Express your answer in µg/mL, writing the number without its unit.

# example entries with known answers
Given the entry `COC(=O)c1[nH]c2ccccc2c1/C=C1\SC(=S)N(c2ccc(C(=O)O)cc2)C1=O` , report its measured MBC.
30

What would you report for CC1(C)S[C@@H]2[C@H](NC(=O)[C@H](N)c3ccccc3)C(=O)N2[C@H]1C(=O)O [Ampicillin, reference compound] ?
500

What would you report for `COC(=O)c1[nH]c2ccc(F)cc2c1/C=C1\SC(=S)N(N2CCOCC2)C1=O` ?
60

What would you report for `COC(=O)c1[nH]c2ccccc2c1/C=C1\SC(=S)N(CC(=O)O)C1=O` ?
60

What would you report for `COC(=O)c1[nH]c2ccccc2c1/C=C1\SC(=S)N(CCCN2CCOCC2)C1=O` ?
60

More entries:
Given the entry `COC(=O)c1[nH]c2ccccc2c1/C=C1\SC(=S)N(CCC(=O)O)C1=O` , report its measured MBC.
60

What would you report for `COC(=O)c1[nH]c2ccc(F)cc2c1/C=C1\SC(=S)N(CCC(=O)O)C1=O` ?
60

What would you report for `COC(=O)c1[nH]c2ccc(F)cc2c1/C=C1\SC(=S)N(c2ccc(O)cc2)C1=O` ?
60

----------
EXPERIMENTAL_DETAILS: in vitro
Type: cell-based
CONDITION_DESCRIPTION: human
QUANTITY_KIND: viability at 48 h, 1 µM (%)
Express your answer in %, writing the number without its unit.

Given the entry `COC(=O)c1[nH]c2ccccc2c1/C=C1\SC(=S)N(CC(=O)O)C1=O` , report its measured viability at 48 h, 1 µM.
91

----------
Tested on: A. ochraceus
EXPERIMENTAL_DETAILS: Antifungal bioassay (MIC/MFC)
Assay type: cell-based
CONDITION_DESCRIPTION: A.o. (A. ochraceus)
We begin with a simple list: items and their reported MIC.
Express your answer in µg/mL, writing the number without its unit.

# example entries with known answers
Given the entry COC(=O)c1[nH]c2ccc(F)cc2c1/C=C1\SC(=S)N(c2ccc(O)cc2)C1=O [Compound 10] , report its measured MIC.
4

What would you report for COC(=O)c1[nH]c2ccc(F)cc2c1/C=C1\SC(=S)N(CCCC(=O)O)C1=O [Compound 9] ?
4

What would you report for COC(=O)c1[nH]c2ccccc2c1/C=C1\SC(=S)N(CCCCCC(=O)O)C1=O [Compound 1] ?
8

More entries:
Given the entry COC(=O)c1[nH]c2ccccc2c1/C=C1\SC(=S)N(CC(=O)O)C1=O [Compound 11] , report its measured MIC.
8
